FYI, the data here is from a melting point compilation (Tetko et al.; mined from patent text by program, amines drawn as free bases though some values may be those of a salt).

Listing of recorded melting point by entry.

Below are worked cases with known answers.
MOLECULE | MEASURE NAME | RESULT
CC(C)N(CCOc1ccc2oc3ccc(OCCN(C(C)C)C(C)C)cc3c2c1)C(C)C | melting point | 47 to 49 °C
Cc1nc(C)c(Cl)c(NCc2nccc(SCCCCN3CCNCC3)c2C)n1 | melting point | 143 to 145 °C
O=C(CNc1ccc2cn[nH]c2c1)N1CCC(Cc2ccccc2)CC1 | melting point | 179 to 182 °C
Fc1ccc(-c2ncnc(C(F)(F)F)c2Cl)c(F)c1 | melting point | 61 to 63 °C
CC(C)(C)OC(=O)COc1cc(NC(=O)OC(C)(C)C)c([N+](=O)[O-])cc1C#Cc1ccccc1 | melting point | 130 °C
O=C1CCC2=C(CCc3cc(Cl)ccc32)N1 | melting point | 228 to 230 °C
Cc1ccc(S(=O)(=O)OCCOc2ccc(N)c(CS(=O)(=O)c3ccccc3)c2)cc1 | melting point | 144 to 146 °C
CCCCC1(N(C)C)CCC(c2[nH]c3ccccc3c2C)(c2[nH]c3ccccc3c2CCNC(=O)Nc2ccccc2)CC1 (centres undefined) | melting point | 115 to 120 °C

What the record says about OCC1OC(n2c(Cl)nc3cc(Cl)c(Cl)cc32)C(F)C1O (centres undefined) : melting point is 223 °C

What the record says about "CC(C)OC(=O)C=CC(=O)NC(N)=O" : melting point is 113 to 114 °C

What the record says about "CC(C)OC(=O)COc1ccc(C(=O)CN2CCN(c3ccncc3)CC2)cc1" : melting point is 64 to 66 °C

What the record says about CC(=O)Nc1cc2c(cc1C#N)[C@@H](N1CCCC1)[C@H](O)C(C)(C)O2 (relative stereo) : melting point is 175 to 176 °C

What the record says about "Cc1cccc(SSc2cccc(C)c2C(=O)Nc2ccc(S(N)(=O)=O)cc2)c1C(=O)Nc1ccc(S(N)(=O)=O)cc1" : melting point is 273 to 275 °C

###

MEASURE NAME: melting point

Below are worked cases with known answers.
COMPOUND | RESULT
CCOC(=O)Cc1csc(-c2cccc(O)c2)n1 | 95.5 to 97.2 °C
CCCCCCn1c(=O)n(C2OC(CO)C(O)C2O)c2nc(N)[nH]c(=O)c21 (stereo unspecified) | 196 to 199 °C
COc1cc(OC)cc(C2(O)C(=O)Nc3ccc(Cl)cc32)c1 (stereo unspecified) | 191 °C
N#Cc1ccc2oc(-c3cccc(O)c3)cc2c1 | 222 to 224 °C
CC(=O)Oc1cc(OC(C)=O)c2ccc(=O)[nH]c2c1 | 230 to 232 °C

Now let's try a different one.
What the record says about Cc1ccccc1C(C)Oc1cc(OCc2ccccc2)ccc1C(=O)O (stereo unspecified) : melting point is 110 to 113 °C

###

Listing of recorded melting point by entry.

Below are worked cases with known answers.
COMPOUND | melting point
CC(C)CCOc1ccc(-c2c(Cl)c(CCl)nc3sc4c(c23)CCN(Cc2ccccc2)C4)cc1 | 149 to 150 °C
COc1ccccc1N(C(N)=O)c1ccc(CC(=O)O)cc1C | 260 to 264 °C
CC(C)(C)C1=C(c2cc3cc(O[Si](C)(C)C(C)(C)C)ccc3s2)OCC1(C)C | 88 to 89 °C
COC(=O)C1=C(C)NC(C)=C(C#N)C1c1cccc2ncc(-c3ccccc3)cc12 (centres undefined) | 242 °C
CCCCN1CCC(c2c[nH]c3ccc(NS(C)(=O)=O)cc23)CC1 | 78 °C

What the record says about "Cc1ccc(N(c2ccc(C)cc2)c2ccc(-c3ccc(N(c4ccc(C)cc4)c4ccc(C)cc4)cc3)cc2)cc1" : melting point is 215 to 216 °C

What the record says about CC(c1ccc(OCc2ccc(Cl)cc2Cl)cc1)n1ccnc1 (centres undefined) : melting point is 103 to 106 °C

What the record says about "COC(=O)c1ccc(Cn2c(C(F)(F)F)nc3cc(C)c(C)cc32)cc1" : melting point is 150 to 152 °C

What the record says about Cc1c(NC(=O)CC(C)(C)C)c(C)c2c(c1-c1ccc(N(C)C)cc1)OCC2c1ccc(C(C)C)cc1 (centres undefined) : melting point is 180 to 181 °C

What the record says about "CN1CCNC(=S)N1c1cc(Cl)cc(Cl)c1" : melting point is 240 to 241 °C

What the record says about "CCCCc1ncc(/C=C(\Cc2cccs2)C(=O)O)n1Cc1cccc(OC)c1[N+](=O)[O-]" : melting point is 213 to 215 °C

What the record says about "CC(C)C(=O)N[C@H]1CC[C@H](CCN2CCC(c3cccc4c3CCO4)CC2)CC1" : melting point is 212 °C

What the record says about "N#Cc1c[nH]c2cc(Cl)c([N+](=O)[O-])cc2c1=O" : melting point is > 300 °C

What the record says about "CN(C)CCCc1cc(C(=O)Nc2ccc(-c3ccc(C(=O)O)cc3)cc2)ccc1O" : melting point is 278 to 280 °C

What the record says about "CC(C)N(Sc1nc2ccccc2s1)C(C)(C)C" : melting point is 68 to 70 °C

What the record says about "COc1ccc2[nH]c(-c3nc(C)no3)cc2c1" : melting point is 141 to 142 °C

What the record says about "CC(C)(C)OC(=O)N1CCC(Sc2cc(C(C)(C)C)c(O)c(C(C)(C)C)c2)CC1" : melting point is 151 to 152 °C

What the record says about "Cc1ccc(-c2ccc(S(=O)(=O)Nc3onc(C)c3Br)cc2)cc1" : melting point is 153 to 156 °C

What the record says about "O=C1CCc2cc(Oc3ccc(F)cc3F)c([N+](=O)[O-])cc21" : melting point is 145 °C

###

MEASURE NAME: melting point

MOLECULE | melting point
Cc1cc(-c2nc3cc4c(cc3[nH]2)C(C)(C)CC(=O)N4)[nH]n1 | 242 to 245 °C
Nn1c(C2CCCCC2)nnc(-c2ccccc2)c1=O | 178 to 180 °C
C=CCC(O)(C(=O)N[C@H]1CN2CCC1CC2)c1cccs1 (stereo not given in full) | 54.4 to 58.3 °C

What the record says about "O=C(O)COc1c(-c2cccc(Cl)c2)cc(C(=O)NCCCCCCCCOCc2ccc(Cl)cc2)cc1-c1cccc(Cl)c1" : melting point is 128 to 131 °C

What the record says about "CCOC(=O)c1cnc2c3cc(OC)ccc3ccn2c1=O" : melting point is 184 to 186 °C

What the record says about "O=C1NCCc2c(-c3ccc4ccccc4c3)[nH]c3cccc1c23" : melting point is 261 to 262 °C

What the record says about "O=C(O)Cc1c(C(=O)c2ccc(OC(F)(F)F)cc2)[nH]c2ccc(Cl)cc12" : melting point is 187 °C

What the record says about "CCCCCCCCCCCCCCCCCC(=O)NCC(C)(C)CO" : melting point is 44 °C

What the record says about CNc1nc(C(C)c2ccc(-c3ccccc3)c(F)c2)cs1 (stereo not given) : melting point is 144 to 145 °C

What the record says about "Cc1ccc2cccc(OCc3c(Cl)ccc(S(=O)(=O)N(CCCCN)C(C)(C)C)c3Cl)c2n1" : melting point is 142 to 144 °C

What the record says about "CC(=O)ON=C(N)c1cccc(C(=O)N2CCN(C(=O)[C@@H]3CCCN3S(=O)(=O)c3ccc(Cl)c(COc4cccc5c(C)cc(C)nc45)c3Cl)CC2)c1" : melting point is 130 °C

What the record says about COC(=O)c1cncc(NC(=O)C(C)CSC(C)=O)c1 (stereo not given) : melting point is 88 to 90 °C

What the record says about "COC(=O)[C@H]1Cc2c([nH]c3ccccc23)[C@@H](c2ccc3occc3c2)N1C(=O)[C@H](C)NC(=O)OCc1ccccc1" : melting point is 91 to 92 °C

What the record says about COC(=O)c1ccc(COC(C)=O)nc1C1=NC(C)(C(C)C)C(=O)N1C(C)=O (stereo not given) : melting point is 111 to 112 °C

What the record says about "CCOC(=O)c1ncc2[nH]c3cccc(Cc4ccccc4Cl)c3c2c1COC" : melting point is 182 to 184 °C

What the record says about "COC(C)=CC(=O)Nc1cccc(OC(=O)NC(C)C)c1" : melting point is 210 °C

What the record says about COC(=O)c1cc2ccc(SCCCc3cc4c(cc3OCc3ccccc3)CC(CCc3ccccc3)O4)cc2nc1OC (stereo not given) : melting point is 96 to 98 °C

What the record says about "COc1cc2c(c3c1OC(C)(C)C3)C(c1cccc(-c3ccc(NC(=O)C(F)(F)F)cc3)c1)=NC(C)(C)C2" : melting point is 149 to 154 °C

What the record says about "Cc1ccnc2c(Oc3ccc(N)cc3)cccc12" : melting point is 157 to 159 °C

What the record says about "CCCCCNc1n[nH]c(C)c1C(=O)OCC" : melting point is 117 to 119 °C

What the record says about "CCOC(=O)c1cc(CC)sc1Nc1cc(F)ccc1[N+](=O)[O-]" : melting point is 87 to 88 °C

What the record says about "CS(=O)(=O)c1ccc(-c2cnn(C3Cc4ccccc4C3)c(=O)c2-c2ccc(F)cc2)cc1" : melting point is 97 to 100 °C

What the record says about "C#CCn1c(C)c(C)c2cnnc(OCc3ccccc3)c21" : melting point is 116 to 117 °C

What the record says about "Cn1c(C=O)cc2cccc(F)c21" : melting point is 61 to 63 °C

What the record says about "CCOC(=O)N(CCOc1ccc(Oc2ccc(F)cc2)cc1)C(=O)OCC" : melting point is 52 to 53 °C

What the record says about "O=C(NCCc1ccccc1CCl)c1ccc([N+](=O)[O-])cc1" : melting point is 126 °C
